assay.system: Farnesyltransferase (Saccharomyces cerevisiae S288c, UniProt P22007+P29703)
Sequence (P29703 whole entry): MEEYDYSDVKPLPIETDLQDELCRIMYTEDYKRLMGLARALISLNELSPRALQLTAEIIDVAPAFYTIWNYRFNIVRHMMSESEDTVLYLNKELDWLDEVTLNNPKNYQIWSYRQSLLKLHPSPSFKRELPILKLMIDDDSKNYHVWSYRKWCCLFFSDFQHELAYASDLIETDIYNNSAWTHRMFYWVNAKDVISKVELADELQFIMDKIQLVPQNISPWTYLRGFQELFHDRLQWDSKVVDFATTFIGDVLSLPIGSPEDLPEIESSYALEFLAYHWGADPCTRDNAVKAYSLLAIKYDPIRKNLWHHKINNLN
Sequence (P22007 whole entry): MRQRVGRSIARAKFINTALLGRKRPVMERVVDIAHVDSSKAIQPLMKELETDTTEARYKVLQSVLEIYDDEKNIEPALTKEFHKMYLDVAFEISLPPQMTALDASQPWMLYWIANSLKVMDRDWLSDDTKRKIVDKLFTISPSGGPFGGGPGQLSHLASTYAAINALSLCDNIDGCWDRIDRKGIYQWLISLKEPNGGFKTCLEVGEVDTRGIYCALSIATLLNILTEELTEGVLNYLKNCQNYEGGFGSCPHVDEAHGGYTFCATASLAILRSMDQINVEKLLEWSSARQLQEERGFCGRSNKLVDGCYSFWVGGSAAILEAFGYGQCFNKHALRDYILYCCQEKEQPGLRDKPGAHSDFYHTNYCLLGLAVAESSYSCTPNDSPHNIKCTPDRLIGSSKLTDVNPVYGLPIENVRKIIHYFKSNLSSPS
assay: Inhibition of yeast Farnesyl transferase
assay.metric: Kd (nM)
Return type: number; implicit unit nM.

Ask: Determine from records and report Kd for CC(C)=CCC/C(C)=C/CC/C(C)=C/CO[P@@](=O)(O)OP(=O)(O)O [FARNESYL DIPHOSPHATE]
Reply: 75
